meta.source: patent US10478425B2

- experimental_target: Human AMPK α2β2γ1 (Homo sapiens, UniProt O43741+P54646)
- Construct: The full length cDNAs of human AMPK β2 (NM_005399.3) and human AMPK α2 (NM_006252.3); The full length cDNAs of human AMPK β2 (NM_005399.3); the full length cDNA of human AMPK γ1 (NM_002733.3) had been inserted into pET28b(+); 6×His (N); made in house; host or cells: Escherichia coli BL21 CodonPlus (DE3)-RIL
- Sequence (P54646 whole entry): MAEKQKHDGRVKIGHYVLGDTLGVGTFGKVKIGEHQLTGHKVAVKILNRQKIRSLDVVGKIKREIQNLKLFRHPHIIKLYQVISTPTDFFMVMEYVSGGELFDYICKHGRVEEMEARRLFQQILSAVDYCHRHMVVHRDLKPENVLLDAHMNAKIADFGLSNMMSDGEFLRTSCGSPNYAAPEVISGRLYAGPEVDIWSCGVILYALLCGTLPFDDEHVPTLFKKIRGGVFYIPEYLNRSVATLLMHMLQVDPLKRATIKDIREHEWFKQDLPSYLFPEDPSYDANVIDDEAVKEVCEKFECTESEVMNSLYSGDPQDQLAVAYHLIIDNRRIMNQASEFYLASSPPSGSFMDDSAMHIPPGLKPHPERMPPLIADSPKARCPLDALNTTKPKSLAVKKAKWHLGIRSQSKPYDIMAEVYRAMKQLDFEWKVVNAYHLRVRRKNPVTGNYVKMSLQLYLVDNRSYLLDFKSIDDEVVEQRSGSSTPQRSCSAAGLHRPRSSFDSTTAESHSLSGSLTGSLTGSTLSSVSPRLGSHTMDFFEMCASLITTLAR
- Sequence (O43741 whole entry): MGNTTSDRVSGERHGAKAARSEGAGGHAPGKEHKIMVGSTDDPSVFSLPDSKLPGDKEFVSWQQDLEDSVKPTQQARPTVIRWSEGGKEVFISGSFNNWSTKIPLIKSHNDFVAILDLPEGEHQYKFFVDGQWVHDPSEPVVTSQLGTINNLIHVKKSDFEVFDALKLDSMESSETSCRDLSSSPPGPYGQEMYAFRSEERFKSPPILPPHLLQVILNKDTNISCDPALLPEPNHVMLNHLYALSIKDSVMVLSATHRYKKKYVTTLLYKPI
- Sequence (P54619 whole entry partner): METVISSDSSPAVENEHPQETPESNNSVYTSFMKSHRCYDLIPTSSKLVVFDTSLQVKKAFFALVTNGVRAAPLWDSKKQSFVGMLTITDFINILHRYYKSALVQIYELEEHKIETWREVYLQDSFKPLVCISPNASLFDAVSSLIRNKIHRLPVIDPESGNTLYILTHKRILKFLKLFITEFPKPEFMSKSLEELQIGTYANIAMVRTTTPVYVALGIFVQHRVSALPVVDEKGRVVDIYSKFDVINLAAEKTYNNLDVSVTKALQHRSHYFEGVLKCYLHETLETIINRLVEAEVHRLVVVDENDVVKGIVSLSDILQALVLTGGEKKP
- assay_protocol: Test Example 2: activation of phosphorylated human AMPK α2β2γ1 (mobility-shift kinase assay, FL-Peptide 7)
- Assay type: biochemical
- test_parameters: compound concentration showing 150% relative to the control (100%); human AMPK α2β2γ1 phosphorylated with CaMKK2
result_type: EC150 (nM)

>>> experimental_result("CN1CCC(Oc2ccc(-c3ccc(-c4nc5cc(O[C@@H]6CO[C@H]7[C@@H]6OC[C@H]7O)[nH]c5cc4F)cc3)cc2)C1 (stereo partly drawn)")
1.5
>>> experimental_result("COCCN(C(C)=O)c1ccc(-c2ccc(-c3nc4cc(O[C@@H]5CO[C@H]6[C@@H]5OC[C@H]6O)[nH]c4cc3F)cc2)cc1")
4.5
>>> experimental_result("O[C@@H]1CO[C@H]2[C@@H]1OC[C@H]2Oc1cc2nc(-c3ccc(-c4ccc(N5CCOCC5)cc4)cc3)c(F)cc2[nH]1")
2.3
>>> experimental_result("CS(C)(=O)=Nc1ccc(-c2ccc(-c3nc4cc(O[C@@H]5CO[C@H]6[C@@H]5OC[C@H]6O)[nH]c4cc3Cl)cc2)cc1")
1.7
>>> experimental_result("O[C@@H]1CO[C@H]2[C@@H]1OC[C@H]2Oc1cc2nc(-c3ccc(-c4ccc(O[C@@H]5CCOC5)cc4)cc3)c(F)cc2[nH]1")
4.3
>>> experimental_result("OC[C@@H]1C[C@H](Oc2cc3nc(-c4ccc(C5(CO)CC5)cc4)c(F)cc3[nH]2)CO1")
2
>>> experimental_result("O[C@@H]1CO[C@H]2[C@@H]1OC[C@H]2Oc1cc2nc(-c3ccc(N4CCC(OC5CCNC5)CC4)cc3)c(F)cc2[nH]1 (stereo partly drawn)")
26
>>> experimental_result("CN(C)CCOc1ccc(-c2ccc(-c3nc4cc(O[C@@H]5CO[C@H]6[C@@H]5OC[C@H]6O)[nH]c4cc3F)cc2)cc1")
2.5
>>> experimental_result("CS(C)(=O)=Nc1ccc(-c2ccc(-c3nc4cc(O[C@@H]5CO[C@H](CO)C5)[nH]c4cc3Cl)cc2)cc1")
2.2
>>> experimental_result("C[S@](=O)(=Nc1ccc(-c2ccc(-c3nc4cc(O[C@@H]5CO[C@H]6[C@@H]5OC[C@H]6O)[nH]c4cc3F)cc2)cc1)c1ccccc1")
19
>>> experimental_result("CC(C)(C)P(=O)(c1ccc(-c2ccc(-c3nc4cc(O[C@@H]5CO[C@H]6[C@@H]5OC[C@H]6O)[nH]c4cc3F)cc2)cc1)C(C)(C)C")
22
>>> experimental_result("C[S+]([O-])c1ccc(-c2ccc(-c3nc4cc(O[C@@H]5CO[C@H](CO)C5)[nH]c4cc3F)cc2)cc1 (single isomer, unassigned) [Compound I-2-07]")
0.68
